- Tested System: Lysosomal alpha-glucosidase (Homo sapiens) (UniProt P10253)
- Measurement Description: qHTS Assay for Inhibitors and Activators of Human alpha-Glucosidase Cleavage of Glycogen;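 further: the screen sought inhibitors and activators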
- Measurement Context: recombinant GAA, glycogen substrate, Amplex Red glucose oxidase fluorescence; series mostly up to 76.3 µM
The campaign covered roughly 300,000 compounds. About 1,200 (0.4%) were called active. Another 3% or so got no clear call; they are omitted. The call rests on the fitted dose curve; in most records, active means well fitted inhibition curve with a large enough effect; inconclusive means small, poorly fitted or top-dose-only effect, or another doubt; inactive means no such curve, though single readings can be large or run the other way. The full list was thinned out, with actives kept by preference.
Allowed answers: label 1 = active, label 0 = inactive

Each compound tested received a call. Report the one for Cc1ccccc1-c1nc(CS(=O)(=O)CC(=O)Nc2cc(Cl)cc(Cl)c2)c(C)o1 .
label 0

Note, next up: CCc1ccc(NC(=O)c2sc3nc4c(cc3c2N)CN(CC)CC4)cc1
label 0

Note, next up: Cc1cc(C)n2nc(C(=O)Oc3ccc4c(c3)OCO4)nc2n1
label 1
